Examples of molecules with documented growth follow.
# Tested on: HS 578T breast
# Run description: NCI-60 one-dose screen, 48 h (100 = growth as untreated, 0 = no growth, -100 = all killed)
# Test settings: 10 µM unless noted
This is part of a sample that, as a whole, favours compounds with a hit. Of some 83,000 tested, about 20% had one in any assay.
Parameter: growth (%)

- c1ccc2c(-c3nc4ccccc4[nH]3)cccc2c1: 44.5
- COc1ccc(-c2cc(-c3nnc(SCC(=O)Nc4ccc(C(C)=O)cc4)n3-c3ccccc3)c3ccccc3n2)cc1OC: 108
- Fc1ccc(-c2nn3c(-c4cc(C(F)(F)F)cc(C(F)(F)F)c4)nnc3s2)cc1: 24.8
- Cc1cc(C)cc(S(=O)(=O)n2ccc(-c3ccc4c(c3)CCC(C)(C)O4)n2)c1: 92.7
- CCSc1nc(-c2cccs2)n2nc(-c3ccco3)cc2n1: 108
- CC(NNC(=S)N1CCCCCC1)c1ccc2ccccc2n1 (stereo not given): 78.5
- Cc1ncc(C(=O)Nc2ccc(CN3CCN(C)CC3)c(C(F)(F)F)c2)cc1C#Cc1cncc2ncccc12: 47.9
- C1=C(Cc2ccccc2)n2cnc3ncnc(c32)S1: 75.3
- N=C1c2nc3n(c2C(=O)c2nc4n(c21)CCCCC4)CCCCC3: 112
- Cc1nn(-c2nc3ccccc3s2)c(C)c1Oc1ccccc1O: 39
- O=C(COc1cccc(/C=C2\Cc3ccccc3C2=O)c1)c1ccc(Cl)cc1: 102
- Cc1cnc2nc(-c3ccc(N(C)C)cc3)cn2c1: 109
- O=C(N/N=C/c1cccc([N+](=O)[O-])c1)c1ccc(Br)o1: 158
- O=C(C(=O)c1cc(Br)ccc1O)c1cc(Br)ccc1O: 38.8
- O=c1[nH]c(SCc2ccccc2)nc2nc(Nc3ccc(NC(=S)Nc4ccccc4)cc3)nc(-c3ccc(O)cc3O)c12: 107
- COc1cc(/C(Cl)=C/C=C/C(=O)c2c(C)[n+]([O-])c3ccc(Cl)cc3[n+]2[O-])cc(OC)c1OC: 17.4
- C[C@@H]1CN(c2nc3c(cc2F)c(=O)c(C(=O)O)cn3C(C)(C)C)C[C@H](C)N1: 67.2
- CC1Cc2ccccc2N1C(=O)c1ccc(C(=O)c2ccccc2)cc1 (stereo not given): 96.3
- COc1ccc(-c2nnc3c4[nH]cnc4ncn23)c(OC)c1: 54.4
- O=C1/C(=C/c2ccc(F)cc2)Cc2ccccc21: 109
- NC(=N\N=C/Cc1ccccc1)/C(N)=N\N=C\Cc1ccccc1: 105
- Cc1sc2nc3c4ccccc4c(NCCCN(C)C)nn3c(=O)c2c1C: 71.6
- N#Cc1c(-c2ccccc2)cc(-c2ccccc2)n(CCCCCCC(=O)O)c1=O: 101
- Cn1c(N2N=C(c3ccc(Cl)cc3)CC2c2ccccc2)nc(-c2ccccc2)c(C#N)c1=O (stereo not given): 86.5
- Cc1cc(-c2ccccc2)cc(C)n1: 111
- COc1ccc2c(c1)[n+](=O)c(/C=C/C(=O)c1cc(OC)c(OC)c(OC)c1)c(C)n2[O-]: 90.7
- C[C@@H]1[C@H]2[C@H](C=C3[C@@H]4CC[C@H]5Cc6nc7c(nc6C[C@]5(C)[C@H]4C[C@@H](O)[C@@]32C)C[C@@H]2CC[C@H]3C4=C[C@@H]5O[C@@]6(CC[C@](C)(CO)O6)[C@@H](C)[C@@]5(O)[C@@]4(C)[C@H](O)C[C@@H]3[C@@]2(C)C7)O[C@]12CCC(C)(C)O2: -4.77
- O=C1Nc2ccc(C(=O)O)c(O)c2C1=O: 108
- CCOC(=O)C(Br)=P(c1ccccc1)(c1ccccc1)c1ccccc1: 119
- CC(C)C[C@H](NC(=O)/C=C/Cn1ccc2ccccc2c1=O)B(O)O: 43.8
- COc1ccc(-c2cnc(SCC(=O)Nc3ccc(-c4nc5ccccc5s4)cc3)n2-c2ccc(OC)cc2)cc1: 105
- O=[N+]([O-])c1ccc(N=Nc2c(Cl)cc(O)cc2Cl)cc1: -20
- FC(F)(F)c1cc(-c2nnc3n2N=C(N2CCCC2)CS3)cc(C(F)(F)F)c1: 46.8
- O=C(/C=C(\Nc1ccccc1)c1ccccc1)c1cn(-c2ccc([N+](=O)[O-])cc2)nn1: 63
- COC(=O)CC1=C(c2ccc([N+](=O)[O-])cc2)CCC1=O: 114
- COc1cccc(N2CCN(c3cccc(C)n3)CC2)c1: 100
- CC(NC(=O)Oc1cccc2ccccc12)c1ccccc1 (stereo not given): 107
- O=C1Nc2ccc(Cl)cc2/C1=C/c1cccs1: 96.2
- COc1ccc(CNC(=O)c2c(C)n([O-])c3ccc(OC)cc3[n+]2=O)cc1: 108
- CC(=O)c1ccc(NS(=O)(=O)c2ccc([N+](=O)[O-])cc2)cc1: 115

====

Examples of compounds with documented growth follow.
# Tested on: HT29 colon
# Run description: NCI-60 one-dose screen, 48 h (100 = growth as untreated, 0 = no growth, -100 = all killed)
# Test settings: 10 µM unless noted
About 83,000 compounds went through this panel and 20% of them were active in at least one assay; those are over-represented in the sample as a whole.
Parameter: growth (%)

• ICCC(c1ccccc1)(c1ccccc1)c1ccccc1 = 2.63
• CN(C)CCC(=O)Nc1ccc(-n2cc(-c3cccc(NC(=S)Nc4cccc(-c5cn(-c6ccc(NC(=O)CCN(C)C)cc6)nn5)c4)c3)nn2)cc1 = 28.4
• COc1ccc(Cl)cc1Nc1nc(C(F)(F)F)ccc1C(=O)N/N=C/c1c(Cl)cccc1Cl = 52.1
• O=C(C(=O)N1CCOCC1)c1cn(CCCn2cc(C(=O)C(=O)N3CCOCC3)c3ccccc32)c2ccccc12 = 99.7
• COc1cccc2c1C(=O)c1c(O)c3c(c(O)c1C2=O)C[C@@](O)(C(C)=O)C[C@@H]3O[C@H]1C[C@H](N)[C@H](O)[C@H](C)O1 = -13.5
• NC(=O)NS(=O)(=O)c1ccc(N2N=C(C(F)(F)F)CC2c2cc(C(F)(F)F)cc(C(F)(F)F)c2)cc1 (stereo unspecified) = 70.4
• CC1CN(CC(O)c2ccc(Br)cc2)CCO1 (stereo unspecified) = 113
• COc1cc(C2=NN(C=O)C(c3cccc(Nc4ccnc5cc(Cl)ccc45)c3)C2)cc(OC)c1OC (stereo unspecified) = 22
• COc1ccc(NC(=O)c2ccc(-c3ccccc3)cc2)c(C(N)=O)c1 = 99.9
• CC12CCC3C(=CCc4cc(O)ccc43)C1CCC2=O (stereo unspecified) = 94.5
• OCc1n(Cc2ccc3ccccc3c2)cc[n+]1Cc1ccc2ccccc2c1 = 36.6
• COc1cc(C(=O)c2cc3c(cc2C)OCO3)cc(OC)c1OC = 3.84
• COC(=O)C1(NC(=O)CNC(=O)OCc2ccccc2)CCCC1 = 108
• CC1C(C)N(C(=O)CCl)c2ccccc2N1C(=O)CCl (stereo unspecified) = -73.5
• C=CCN(/C=C/CN(CC=C)CC=C)CC=C = 100
• COc1ccc(-n2cnc3cc(C(=O)N4CCCCC4)ccc32)cc1 = 102
• O=C(COc1ccc(/C=C2\Oc3ccc4ccccc4c3C2=O)cc1)c1ccc([N+](=O)[O-])cc1 = 109
• C(=C1c2ccccc2-c2ccccc21)c1ccncc1 = 8.42
• COc1ccc2c(c1)sc1nc(-c3ccc(N(C)C)cc3)cn12 = 113
• CC(C)N(Cc1ccccc1)c1c(Cl)ssc1=O = 100
• CCOC(=O)/C(=C/CC/C(C)=C/CC/C(C)=C/CCc1ccoc1)CC(=O)N1CCCCC1 = 55.5

====

# Tested on: RXF 393 renal
# Run description: NCI-60 one-dose screen, 48 h
# Test settings: 10 µM unless noted
This is part of a sample that, as a whole, favours compounds with a hit. Of some 83,000 tested, about 20% had one in any assay. Active and inactive are the calls of the source. The calls were made as follows: active = growth percent below 10; inactive = the rest.
Outcomes: y = active, n = inactive

* C[C@H]1O[C@@H](O[C@H]2[C@@H](O)C[C@H](O[C@H]3[C@@H](O)C[C@H](O[C@H]4CC[C@]5(C)C6C[C@@H](O)[C@]7(C)[C@@H](C8=CC(=O)OC8)CC[C@]7(O)C6CC[C@@H]5C4)O[C@@H]3C)O[C@@H]2C)C[C@H](O)[C@@H]1O (stereo partly drawn) | y
* O=C(CNC(=O)c1cccc2ccccc12)Nc1ccccc1Cc1ccccc1 | n
* C[C@H](C(=O)N[C@@H](Cc1ccc(-c2ccccc2)cc1)C(=O)NC1CC(C)(C)N(C)C(C)(C)C1)c1ccc(-c2ccccc2)c(F)c1 | y

====

Examples of molecules with documented growth follow.
# System: EKVX NSCLC
# Run description: NCI-60 one-dose screen, 48 h (100 = growth as untreated, 0 = no growth, -100 = all killed)
# Test settings: 10 µM unless noted
About 83,000 compounds went through this panel and 20% of them were active in at least one assay; those are over-represented in the sample as a whole. Active and inactive are the calls of the source. The calls were made as follows: active = growth percent below 10; inactive = the rest.
Parameter: growth

• O=C(Nc1ccccc1)P(=O)(O)c1ccccc1 = 113% (inactive)
• COc1ccc2c3c(ccc2c1)C(=O)/C(=C\O)CC3 = 78.5% (inactive)
• CCSc1ncc(Br)c(Sc2nc(N)nc3nc[nH]c23)n1 = 36.7% (inactive)
• CCOC(=O)CCN(c1c(Cl)ssc1=O)C(C)C = 107% (inactive)
• CCN(CC)CCSc1ncnc2c1cnn2-c1ccc(S(N)(=O)=O)cc1 = 86.8% (inactive)
• COc1ccc(Oc2ccccc2NC(=O)CNC(=O)c2cccc3ccccc23)cc1 = 46.3% [5 µM] (inactive)
